test target: Human HDAC3/NcoR2 (Homo sapiens, UniProt O15379)
Construct: Complex of human HDAC3, full length with C-terminal His tag, MW=49.7 kDa; His (C); purchased BioMol SE-507
Sequence (O15379 whole entry): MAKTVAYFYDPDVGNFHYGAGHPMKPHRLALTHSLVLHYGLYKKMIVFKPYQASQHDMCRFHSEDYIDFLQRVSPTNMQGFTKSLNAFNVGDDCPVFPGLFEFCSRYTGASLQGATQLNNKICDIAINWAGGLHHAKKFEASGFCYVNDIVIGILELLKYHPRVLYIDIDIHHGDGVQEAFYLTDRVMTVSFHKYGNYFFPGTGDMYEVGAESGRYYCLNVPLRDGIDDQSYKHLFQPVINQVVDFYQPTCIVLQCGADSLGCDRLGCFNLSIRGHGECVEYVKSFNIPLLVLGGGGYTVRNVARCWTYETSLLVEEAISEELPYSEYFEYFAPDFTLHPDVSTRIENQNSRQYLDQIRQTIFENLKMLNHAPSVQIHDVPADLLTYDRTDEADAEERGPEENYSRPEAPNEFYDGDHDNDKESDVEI
Sequence (Q9Y618 395-489 partner limits assumed): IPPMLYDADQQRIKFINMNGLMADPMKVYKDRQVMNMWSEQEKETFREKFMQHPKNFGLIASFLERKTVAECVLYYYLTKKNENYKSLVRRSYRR
assay procedure: In vitro HDAC3 inhibition, fluorogenic peptide assay
Format: biochemical
reported conditions: read-out: IC50 (nM) of enzyme activity HDAC3
result type: IC50
Remember to quote the unit after the number.

Example cases with answers are listed next.
{"columns": ["compound", "IC50"],
 "data": [
  ["O=C(CCCCCNC(=O)c1[nH]c(-c2ccccc2)cc1-c1ccc(O)cc1)NO [Example 1]", "437 nM"],
  ["O=C(CCCCCNC(=O)c1[nH]c(-c2ccsc2)cc1-c1ccc(O)cc1)NO [Example 3]", "441 nM"],
  ["O=C(CCCCCNC(=O)c1[nH]c(-c2ccc(O)cc2)cc1-c1ccoc1)NO [Example 5]", "20 nM"]
]}

# ---- query compound ----
IC50 recorded for this compound, O=C(CCCCCNC(=O)c1[nH]c(-c2ccc(O)cc2)cc1-c1ccsc1)NO [Example 6] , is 71 nM

###

test target: Human HDAC2 (Homo sapiens)
Construct: Full length with C-terminal His tag, MW=60 kDa; His (C); purchased BioMol SE-500; host or cells: Sf9 cells, baculovirus
Sequence (Q92769 whole entry): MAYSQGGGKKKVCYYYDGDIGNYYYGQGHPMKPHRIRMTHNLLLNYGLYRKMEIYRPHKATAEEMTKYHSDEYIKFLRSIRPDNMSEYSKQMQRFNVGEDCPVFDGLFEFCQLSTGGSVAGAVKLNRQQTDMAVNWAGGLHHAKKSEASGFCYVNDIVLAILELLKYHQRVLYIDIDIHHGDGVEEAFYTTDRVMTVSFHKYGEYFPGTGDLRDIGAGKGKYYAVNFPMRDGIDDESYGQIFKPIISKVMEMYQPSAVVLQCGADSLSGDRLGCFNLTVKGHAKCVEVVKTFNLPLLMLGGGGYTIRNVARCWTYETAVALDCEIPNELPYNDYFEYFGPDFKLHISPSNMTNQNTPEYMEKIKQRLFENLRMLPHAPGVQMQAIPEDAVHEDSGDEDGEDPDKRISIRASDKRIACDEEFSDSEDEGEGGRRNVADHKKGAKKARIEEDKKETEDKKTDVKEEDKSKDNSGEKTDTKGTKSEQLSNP
assay procedure: In vitro HDAC2 inhibition, fluorogenic peptide assay
Type: biochemical
reported conditions: IC50 HDAC2/IC50 HDAC6
Documented Selectivity against HDAC6 (IC50 HDACx/IC50 HDAC6) HDAC2 across a set of compounds
The answer should be a number; do not append a unit.

Examples with their reported Selectivity against HDAC6 (IC50 HDACx/IC50 HDAC6) HDAC2 follow.
{"columns": ["compound", "test target", "result number"],
 "data": [
  ["COc1ccc(-c2cc(-c3ccccc3)[nH]c2C(=O)NCCCCCC(=O)NO)cc1 [Compound A, reference compound]", "Human HDAC2 (Homo sapiens)", 64.7],
  ["O=C(CCCCCNC(=O)c1[nH]c(-c2ccccc2)cc1-c1ccc(O)cc1)NO", "Human HDAC2 (Homo sapiens)", 81.1]
]}

The compound O=C(CCCCCNC(=O)c1[nH]c(-c2ccc(O)cc2)cc1-c1ccccc1)NO showed Selectivity against HDAC6 (IC50 HDACx/IC50 HDAC6) HDAC2 equal to 52.1

Reported Selectivity against HDAC6 (IC50 HDACx/IC50 HDAC6) HDAC2 ( COc1ccc(-c2cc(-c3ccccc3)c(C(=O)NCCCCCC(=O)NO)[nH]2)cc1 [Compound B, reference compound] ) = 28.7

###

test target: Human HDAC9 (Homo sapiens)
Construct: Amino acids 604-1066 with C-terminal His tag, MW=50.7 kDa; His (C); purchased BioMol, Hamburg, Germany
Sequence (Q9UKV0 604-1066 isoform Q9UKV0-7): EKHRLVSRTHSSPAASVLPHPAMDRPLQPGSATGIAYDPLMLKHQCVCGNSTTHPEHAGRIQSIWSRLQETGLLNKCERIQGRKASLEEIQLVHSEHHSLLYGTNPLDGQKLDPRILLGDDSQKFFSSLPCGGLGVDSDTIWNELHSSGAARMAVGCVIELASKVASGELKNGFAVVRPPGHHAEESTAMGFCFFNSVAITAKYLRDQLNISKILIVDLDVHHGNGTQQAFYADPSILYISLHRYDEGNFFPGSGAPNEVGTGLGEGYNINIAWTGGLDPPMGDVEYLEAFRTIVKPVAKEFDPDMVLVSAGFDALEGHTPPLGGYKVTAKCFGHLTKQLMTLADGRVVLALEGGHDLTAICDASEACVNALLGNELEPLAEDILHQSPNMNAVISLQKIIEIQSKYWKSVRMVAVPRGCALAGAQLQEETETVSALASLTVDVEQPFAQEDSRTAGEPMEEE
assay procedure: In vitro HDAC9 inhibition, fluorogenic peptide assay
Type: biochemical
reported conditions: read-out: IC50 (nM) of enzyme activity HDAC9
Below, each entry is listed with its recorded IC50.
A complete answer gives the number and then names the unit.

Recorded IC50, per entry:
{"columns": ["compound", "IC50"],
 "data": [
  ["O=C(CCCCCNC(=O)c1[nH]c(-c2ccc(O)cc2)cc1-c1ccoc1)NO", "27 nM"],
  ["O=C(CCCCCNC(=O)c1[nH]c(-c2ccc(O)cc2)cc1-c1ccsc1)NO", "80 nM"]
]}

# next compound below
Entry COc1ccc(-c2cc(-c3ccccc3)[nH]c2C(=O)NCCCCCC(=O)NO)cc1 [Compound A, reference compound] , tested on Human HDAC9 (Homo sapiens), has a reported IC50 of 768 nM
